target: PDGFRb (Homo sapiens, UniProt P09619); construct: The kinase domain of PDGFRβ was assayed in 50 mM Hepes; purchased Invitrogen P3082; assay: PDGFRb kinase in vitro biochemical assay (alphascreen); details: tested at about 1 μM; read-out: PDGF RK BETA percent inhibition
Sequence (P09619 600-962 limits assumed): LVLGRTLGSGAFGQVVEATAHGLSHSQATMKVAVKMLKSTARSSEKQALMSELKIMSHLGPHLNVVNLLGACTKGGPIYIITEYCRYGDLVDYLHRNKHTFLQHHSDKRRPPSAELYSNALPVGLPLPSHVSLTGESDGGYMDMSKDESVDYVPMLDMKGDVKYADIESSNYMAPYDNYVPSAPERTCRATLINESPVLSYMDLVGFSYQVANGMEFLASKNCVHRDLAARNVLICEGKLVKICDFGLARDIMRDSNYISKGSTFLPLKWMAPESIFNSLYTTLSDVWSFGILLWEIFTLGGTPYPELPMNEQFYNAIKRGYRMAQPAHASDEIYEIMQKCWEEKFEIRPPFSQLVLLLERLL
Metric Name: inhibition at 1 µM (%)

O[C@@H]1CCCC[C@H]1Nc1nc2ccc(Oc3cncc(-c4cnn(CCN5CCOCC5)c4)n3)cc2s1
8
CNC(=O)c1ccc(Oc2ccc3nc(N[C@@H](C)C4CCCCC4)sc3c2)cn1
13
C[C@H](Nc1nc2ccc(Oc3ccnc(-c4ccnn4C)n3)cc2s1)C1CCCCC1
6

P: C[C@H](Nc1nc2ccc(Oc3ccnc(-c4cccnc4)n3)cc2s1)C1CCCCC1
Q: O[C@@H]1CCCC[C@H]1Nc1nc2ccc(Oc3ncnc4ccccc34)cc2s1
R: Clc1nccc(Oc2ccc3nc(NCC4CCCCC4)sc3c2)n1
S: Cn1cc(-c2cc(Oc3ccc4nc(N[C@@H]5CCCC[C@H]5O)sc4c3)cnc2-c2cnn(C)c2)cn1
hey, can you rank those molecules up there by inhibition at 1 µM? biggest number first please Record the ranking as a list of labels in the requested order. S, Q, P, R
